The origin of these recorded values is patent US5518735A.

assay: Plasma concentration in rats after oral administration (HPLC); conditions: rat, plasma, po, 100 mg/kg
Where a name gives a salt, the structure may show the parent alone.
Observed property: concentration at 3 h (µg/mL)

Compound	Observed property	Unit label	Reported measurement
N=C(N)c1cccc(CC(NS(=O)(=O)c2ccc3ccccc3c2)C(=O)N2Cc3ccccc3CC2C(=O)O)c1 (racemic)	concentration at 3 h	µg/mL	0.236
N=C(NO)c1cccc(CC(NS(=O)(=O)c2ccc3ccccc3c2)C(=O)N2Cc3ccccc3CC2C(=O)O)c1 (racemic) [Compound 190, hydroiodide]	concentration at 3 h	µg/mL	0.217
N=C(N)c1cccc(C[C@H](NS(=O)(=O)c2ccc3ccccc3c2)C(=O)N2CCC[C@@H]2C(=O)O)c1 [Compound 123, hydrochloride]	concentration at 3 h	µg/mL	0.096
